- protocol text: Quantum yield in aqueous solution (Tris) and in the presence of surfactants
- Type: physicochemical
- condition info: 20 mM CTAB
endpoint name: φCTAB (quantum yield)

Lookup: Any idea what its φCTAB (quantum yield) is? The compound is `COc1cc2c(cc1C#Cc1ccc(-c3ccccc3)cc1)[Si](c1ccccc1)(c1ccccc1)c1cc(C#Cc3ccc(-c4ccccc4)cc3)c(OC)cc1-2`
Found: 0.93

Lookup: Any idea what its φCTAB (quantum yield) is? The compound is `COc1ccc2cc(C#Cc3c[c]4c(cc3OC)-c3cc(OC)c(C#Cc5ccc6cc(OC)ccc6c5)c[c]3[Ge]4([c]3ccccc3)[c]3ccccc3)ccc2c1`
Found: 0.99

Lookup: Any idea what its φCTAB (quantum yield) is? The compound is `COc1cc2c(cc1C#Cc1cccc(F)c1)[Si](c1ccccc1)(c1ccccc1)c1cc(C#Cc3cccc(F)c3)c(OC)cc1-2`
Found: 0.98

Lookup: Any idea what its φCTAB (quantum yield) is? The compound is `COc1cc2c(cc1C#Cc1ccc(C)cc1)[Si](c1ccccc1)(c1ccccc1)c1cc(C#Cc3ccc(C)cc3)c(OC)cc1-2`
Found: 0.93
